Source of measurements: patent US20210332145A1

Each entry below carries its reported Positive (%).
Biological target: T1, BCMA on cells (293T cells transfected with BCMA; H929, MM.1S and U266 cell lines expressing BCMA) (human, UniProt Q02223 1-184)
T1 construct: H929, MM.1S and U266 carry the native protein; also called B-cell Maturation Antigen; TNFRSF17
T1 sequence: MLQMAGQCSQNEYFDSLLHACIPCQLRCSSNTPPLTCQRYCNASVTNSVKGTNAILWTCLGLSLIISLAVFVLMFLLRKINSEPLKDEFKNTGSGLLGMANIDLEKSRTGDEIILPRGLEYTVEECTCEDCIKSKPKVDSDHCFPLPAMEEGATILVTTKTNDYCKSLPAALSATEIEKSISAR
Experiment: flow cytometry, 293T cells transfected with BCMA, above parental 293T background; further: test concentration or dose not given here
Please give a number only; it is taken to be in %.

Some solved entries appear below for comparison.
q: What value of Positive (%) has been reported for the following binder? SCT-Aa12(m/m) (antibody, V domains shown, Full IgG format: mouse IgG1 heavy chain constant region, mouse kappa light chain constant region) VH: QVQLQQSDAELVKPGASVKISCKVSGYTFTDYTIHWMKQRPEQGLEWIGYIFPSDGSTKYNEKFKGKATLTADKSSSTAYMQLNSLTSDDSAVYFCARWDYEGFDYWGQGTTLTVSS VL: DIVMTQSPATLSVTPGDRVSLSCRASQSISDYLNWYQQKSHESPRLLIKYASQSISGIPSRFSGSGSGSDFTLSINSVEPEDVGVYYCQNGHSFPPTFGSGTKLEIK
a: 85.7

q: # query: Positive (%) of entry SCT-Aa18(h/h) (antibody, V domains shown, Full IgG format, chimeric: human IgG1 heavy chain constant region, human kappa light chain constant region) VH: EVQLQQSGPELVKPGASVKISCKASGYTFISYVMHWVKQKPGQGLEWIGYIIPYNDGTKYNEKFKGKATLTSDKSSSTAYMELSSLTSEDSAVYYCAKWGNWDEGTWFPYWGQGTLVTVSA VL: DVLMTQTPLSLPVSLGDQASFSCRSSQSIVHSDGNTYLEWYLQKPGQSPKLLIYKISNRFSGVPDRFSGSGSGTDFTLKISRVEAEDLGVYYCFQGSHVPWTFGGGTKLEIK
a: 76.1

Consider now this further binder.
q: Need Positive (%) of SCT-Aa04(m/m) (antibody, V domains shown, Full IgG format: mouse IgG1 heavy chain constant region, mouse kappa light chain constant region) VH: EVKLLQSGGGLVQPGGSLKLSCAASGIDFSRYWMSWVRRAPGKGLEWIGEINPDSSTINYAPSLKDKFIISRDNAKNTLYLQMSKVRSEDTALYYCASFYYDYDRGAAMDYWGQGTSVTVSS VL: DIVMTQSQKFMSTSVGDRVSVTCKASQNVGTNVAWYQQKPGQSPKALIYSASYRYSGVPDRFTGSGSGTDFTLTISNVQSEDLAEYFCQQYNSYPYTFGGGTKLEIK , thanks.
a: 88.9
